Value source: PubChem BioAssay (NCI)

# Tested on: MOLT-4 leukemia
# Experiment notes: NCI-60 one-dose screen, 48 h
# Cond: 10 µM unless noted
This is part of a sample that, as a whole, favours compounds with a hit. Of some 83,000 tested, about 20% had one in any assay. Active and inactive are the calls of the source. Rule for the calls: active = growth percent below 10; inactive = the rest.
// one of true (1) for active, false (0) for inactive, no free text

Query: Called result for CC12CCC3C4(C)COC(c5ccccc5Cl)OC4CCC3(C)C1CC(C1=CCOC1=O)O2 (stereo not drawn)
Response: false (0)

Query: In this assay, the call recorded for CN(C)CCN1C(=O)c2ccc3c4c(ccc(c24)C1=O)C(=O)N(CCN=C=S)C3=O was what?
Response: true (1)

Query: Which outcome did this test record for the molecule COc1cc2c(cc1OCCCN1CCN(CCCn3c4ccccc4c4ccccc43)CC1)N=C[C@@H]1CCCN1C2=O ?
Response: true (1)

Query: Name the outcome recorded for CCOC(=O)c1ccc(NC(=O)N2CC(C)OC(C)C2)cc1 (stereo not drawn) in the assay.
Response: false (0)

Query: Please let me know the test result on file for C=C(C)[C@@H]1CC[C@]2(C(=O)O)CC[C@]3(C)[C@H](CC[C@@H]4[C@@]5(C)C[C@@H](CC#Cc6ccc(C(F)(F)F)cc6)[C@H](O)C(C)(C)[C@@H]5CC[C@]43C)[C@@H]12 .
Response: true (1)

Query: Per the records of this test, what outcome belongs to Cc1ccc(S(=O)(=O)n2cc(C(=O)C(=O)N3CCOCC3)c3ccccc32)cc1 ?
Response: false (0)

Query: Answer briefly: the call reported for COc1c2occc2c(OC)c2c(=O)c(-c3cc(-c4ccc(F)cc4)c(C#N)c(N)n3)c(C)oc12 in this assay.
Response: true (1)

Query: What outcome does the record of this test show for COc1ccc(/C(C#N)=C/c2cc(OC)c(OC)c(OC)c2)cc1 ?
Response: false (0)

---

# System: HT29 colon
# Experiment notes: NCI-60 one-dose screen, 48 h
# Cond: 10 µM unless noted
About 83,000 compounds went through this panel and 20% of them were active in at least one assay; those are over-represented in the sample as a whole. Calls of active or inactive are those of the source. The calls were made as follows: active = growth percent below 10; inactive = the rest.
# valid calls are Yes = active, No = inactive; nothing else

Query: Returns: the outcome recorded for O=C(CN1CCN(c2cc3c(cc2F)c(=O)c(C(=O)N/N=C/c2ccccc2O)cn3C2CC2)CC1)N/N=C\c1ccccc1O in this assay.
Response: No

Query: Would you mind telling me which call this test gave Cc1ccc(/C=C2\CN(C(=O)CCN3CCC(=NO)CC3)C/C(=C\c3ccc(C)cc3)C2=O)cc1 ?
Response: Yes

Query: What classification did O=[N+]([O-])c1ccc(-c2cn(-c3ccccc3)c(-c3ccccc3)n2)cc1 end up with in this test?
Response: No

Query: Hi, sorry to bother you, what did the test record for COc1ccc(-c2nc(/C=N/Nc3cc(C)nc4ccc(Br)cc34)c(C)o2)cc1 ?
Response: Yes

Query: Hi, do you know how CC(C)(C)n1cc(-c2ccnc(NCCCNS(=O)(=O)c3ccc(Br)cc3)c2)c(-c2cccc(O)c2)n1 came out in this test?
Response: Yes

Query: What classification did S=c1[nH]nc(-c2cc3ccc2CCc2ccc(cc2)CC3)n1C1CC1 end up with in this test?
Response: No

Query: Each compound tested received a call. Report the one for O=C(O)C1CCCCN1c1nc(Cl)nc(Cl)n1 (stereo unspecified) .
Response: No

Query: Answer briefly: the call reported for COc1ccc(C(=O)N2NC(=O)/C(=C/c3ccccc3F)N=C2c2ccccc2)cc1 in this assay.
Response: No

Query: Please state the recorded outcome for this compound: COc1ccc(S(=O)(=O)Nc2cc(/C=C\c3cc(OC)c(OC)c(OC)c3)cc(OC)c2OC)cc1
Response: Yes

Query: GET /call?item= COc1ccc(Nc2nn3c(-c4ccccc4)cc(-c4ccccc4)nc3c2C(N)=O)c(OC)c1 returns the recorded outcome of this test.
Response: No

Query: recorded result category for COc1ccc(OC)c(/C=C2\Oc3cc(OCCCN4CCCC4)ccc3C2=O)c1 in this test
Response: No

Query: Hi, sorry to bother you, what did the test record for Cc1nc2cncc(C#Cc3cncc(C(=O)Nc4ccc(CN5CCN(C)CC5)c(C(F)(F)F)c4)c3)c2nc1C ?
Response: Yes

Query: recorded result category for CCN(CC)CCOC(=O)C(c1ccccc1)(c1ccccc1)C(C)C in this test
Response: No

Query: For Fc1ccccc1-c1nc(-c2nc3cc(Cl)c(Cl)cc3[nH]2)c2ccccn12 , what call appears in the results of this test?
Response: No

Query: Record request — test call for CC[N+](CC)=c1cc2oc3cc(N(C)C)ccc3nc-2cc1C
Response: No

Query: Outcome logged for COc1cc(C(=O)/C=C/c2ccc3nc(-c4cc(F)cc(F)c4)sc3c2)cc(OC)c1OC in this assay:
Response: No

Query: Per the records of this test, what outcome belongs to COc1ccc(C2=Nn3c(nnc3-n3nc(C)cc3C)SC2)cc1 ?
Response: Yes

Query: Could you kindly confirm the outcome this assay logged for O=c1[nH]c2ccc(Br)cc2c2c1C(c1ccc(Cl)cc1)c1c(ncn3nc(-c4ccco4)nc13)O2 (stereo unspecified) ?
Response: No

Query: For this compound, state the assay outcome: Clc1ccc(-c2nc3ccccc3s2)cc1Cl
Response: No

Query: Just curious, what result did CN1C(=O)N(C)C2C1NN=c1s/c(=C\C=C\c3ccccc3)c(=O)n12 (stereo unspecified) get here?
Response: No

Query: Tell me the assay call for CN(C)CCCN(c1nc(C(Cl)(Cl)Cl)ns1)c1nc(C(Cl)(Cl)Cl)ns1 please.
Response: Yes

Query: What outcome does the record of this test show for CCCCCCCCCCCCNC(=O)[C@H]1CSC(c2ccsc2)N1 (stereo partly specified) ?
Response: Yes

Query: What classification did CCn1c2ccccc2c2cc(NC(=O)Nc3ccc([N+](=O)[O-])cc3C)ccc21 end up with in this test?
Response: No

Query: Each compound tested received a call. Report the one for ClC(Cl)c1nc(-c2ccccc2)nc2cc(-c3ccccc3)nn12 .
Response: Yes

Query: Test call, this compound: CCN1C(=O)N(CC)C2C1NN=c1s/c(=C\c3cccnc3)c(=O)n12 (stereo unspecified)
Response: Yes

Query: So what was the verdict on CC(C)CC1NC(C)(C)CO1 (stereo unspecified) in this test?
Response: No

Query: Which outcome was entered for the compound Cc1[nH]c2ccc(F)cc2c1CCNC(=O)C1CCN(C(=O)c2ccccc2)C1 (stereo unspecified) in this test?
Response: No

Query: Per the records of this test, what outcome belongs to CCN(CC)c1ccc2[nH]c3c(C(N)=O)cc(=O)c(=O)c=3oc2c1 ?
Response: Yes

Query: For COc1ccc(-c2c(N)n[nH]c2-c2cc(OC)c3c(c2)OCCO3)cc1 , which call appears in the assay record?
Response: No

Query: What outcome does the record of this test show for CN(C)CC(C(=O)c1ccccc1)c1ccccc1 (stereo unspecified) ?
Response: Yes

Query: # outcome recorded in this test, key = COC(=O)c1nc(-c2ccccc2)oc1S(=O)(=O)N1CCN(c2cccc(Cl)c2)CC1
Response: No

Query: Give the logged outcome of this assay for the following compound: COc1ccc(C2C=C(c3ccc(OC)c(OC)c3)N=C3SC=C(C)N32)c(Br)c1 (stereo unspecified)
Response: No

Query: Kindly provide the recorded test outcome for the following compound: O=[N+]([O-])c1cnc(Sc2ccncn2)s1
Response: No

Query: GET /call?item= COc1ccc(S(=O)(=O)NCCCNc2nccc(-n3ccc4cccnc43)n2)cc1 returns the recorded outcome of this test.
Response: No

Query: Hello, I am checking results. What call was entered for CCCCOc1ccc(/C=C2/SC(N3CCOCC3)=NC2=O)cc1OCC ?
Response: No

Query: Which outcome was assigned to CC(C)(C)c1[nH]nc2c1C(c1cc3ccccc3[nH]c1=O)Nc1cc(C(=O)Nc3ccc(Cl)cc3)ccc1N2 (stereo unspecified) in this test?
Response: No

Query: # lookup: test call for COc1cc(NC(=O)SC2=NCCS2)cc(OC)c1
Response: No

Query: Called result for CCN(CC)CCC(CNc1ccnc2cc(Cl)ccc12)c1ccccc1 (stereo unspecified)
Response: Yes

Query: Look up the recorded call for CCOC(=O)c1ccc2c(c1)c1c(C)c3cccnc3c(C)c1n2C in this test.
Response: No

Query: # outcome recorded in this test, key = CN1CCN(CCCOc2ccc3nc(Nc4ccc(Cl)c(C(F)(F)F)c4)ccc3c2)CC1
Response: Yes

Query: Test call for this compound, please: O=c1c2sc3ncccc3c2nnn1-c1ccccc1
Response: No
